Recorded values, source patent US4371540A.

test: plasma pharmacokinetics and neural tissue exposure (AUC) in dogs; conditions: dog, plasma, 500 umol/kg, AUC Plasma, dogs, standardized for 0.5 mmole/kg
value type: AUC (µM·h)
Write the number in µM·h without appending the unit.

What does the record list as AUC for `O=C(Cn1ccnc1[N+](=O)[O-])N(CCO)CCO` ?
1620

----------
experiment: plasma pharmacokinetics and neural tissue exposure (AUC) in dogs; conditions: dog, plasma
value type: clearance (mL/min/kg)
Write the number in mL/min/kg without appending the unit.

What does the record list as clearance for COCC(O)Cn1ccnc1[N+](=O)[O-] (centres unmarked) [MIS, misonidazole, reference compound] ?
1.5

Same for `O=C(Cn1ccnc1[N+](=O)[O-])N(CCO)CCO`
4.33
